Target: Beta-1 adrenergic receptor (Homo sapiens, UniProt P08588)
Sequence (P08588 whole entry): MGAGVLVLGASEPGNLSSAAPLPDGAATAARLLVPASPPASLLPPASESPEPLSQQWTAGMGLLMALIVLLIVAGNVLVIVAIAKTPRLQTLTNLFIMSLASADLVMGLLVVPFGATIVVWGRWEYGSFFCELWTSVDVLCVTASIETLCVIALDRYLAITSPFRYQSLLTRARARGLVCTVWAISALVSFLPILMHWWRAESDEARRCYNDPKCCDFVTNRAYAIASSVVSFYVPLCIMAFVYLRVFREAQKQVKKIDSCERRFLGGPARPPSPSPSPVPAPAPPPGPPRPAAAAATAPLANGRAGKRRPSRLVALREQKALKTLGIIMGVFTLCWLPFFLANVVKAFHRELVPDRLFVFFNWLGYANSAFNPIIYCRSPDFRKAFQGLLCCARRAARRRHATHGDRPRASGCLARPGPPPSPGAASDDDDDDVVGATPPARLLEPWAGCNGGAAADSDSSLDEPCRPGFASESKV
Assay: Agonist activity at human recombinant beta-1 adrenergic receptor expressed in CHO cells assessed as cAMP accumulation by enzyme immuno assay
Experimental Endpoint: EC50 (nM)

Use the examples below as a reference point.
- Given Smiles: "CC(C)Cc1cc(-c2ccc(CCN[C@@H](C)[C@H](O)c3ccccc3)cc2)ccc1C(=O)O"
  Test System: "Beta-1 adrenergic receptor (Homo sapiens, UniProt P08588)"
  Measurement Unit: "nM"
  EC50: 300
- Given Smiles: "CC(C)Oc1cc(-c2ccc(OCCNC[C@H](O)c3cccc(Cl)c3)cc2)ccc1C(=O)O"
  Test System: "Beta-1 adrenergic receptor (Homo sapiens, UniProt P08588)"
  Measurement Unit: "nM"
  EC50: 84
- Given Smiles: "C[C@H](Cc1ccc(-c2ccc(C(=O)O)cc2)cc1)NC[C@H](O)c1cccc(Cl)c1"
  Test System: "Beta-1 adrenergic receptor (Homo sapiens, UniProt P08588)"
  Measurement Unit: "nM"
  EC50: 13

P = CCCOc1cc(-c2ccc(OCCNC[C@H](O)c3cccc(Cl)c3)cc2)ccc1C(=O)O
Q = CCCOc1cc(-c2ccc(OCCNC[C@H](O)c3ccccc3)cc2)ccc1C(=O)O
Pick one: P or Q . Which one has the lower reported EC50? // caller expects the label of the chosen entry P

I = Nc1ccc([C@@H](O)CNCCc2ccc(-c3ccc(C(=O)O)c(OC4CCCCC4)c3)cc2)cn1
II = CC(C)Cc1cc(-c2ccc(CCNC[C@H](O)c3ccc(N)nc3)cc2)ccc1C(=O)O
III = CC(C)Oc1cc(-c2ccc(CCN[C@@H](C)[C@H](O)c3ccccc3)cc2)ccc1C(=O)O
Provide the items ranked by increasing EC50. Your reply should list the labels following the order given in the request. I, II, III

I = CC(C)Oc1cc(-c2ccc(CC(C)(C)NC[C@H](O)c3ccccc3)cc2)ccc1C(=O)O
II = CCCOc1cc(-c2ccc(CCN[C@@H](C)[C@H](O)c3ccccc3)cc2)ccc1C(=O)O
Pick one: I or II . Which one has the lower reported EC50? // caller expects the label of the chosen entry I
(I: 280 nM, II: 690 nM)

---

Experiment: Terminal half life in dog at 0.1 mg/kg, iv by cassette assay
Type: ADME, organism-based, Canis lupus familiaris
Design: dose 0.1 mg/kg, route intravenous
Conditions: in vivo, read-out: beta t1/2 (converted)
half-life values for the compounds below.
Value expressed in h; do not type the unit.

- Given Smiles: "CC(C)Cc1cc(-c2ccc(OCCNC[C@H](O)c3ccc(N)nc3)cc2)ccc1C(=O)O"
  half-life / h: 9.5

Requested field: half-life. Item: "CCCOc1cc(-c2ccc(OCCNC[C@H](O)c3cccc(Cl)c3)cc2)ccc1C(=O)O" 10.9

---

Assay: AUC (0 to 24 hrs) in rat at 1.0 mg/kg, po by cassette assay
Type: ADME, organism-based
Parameters: time < 24 hr, dose 1 mg/kg, route oral
Conditions: plasma
Experimental Endpoint: AUC(0-t) at 24 h (ng·h/mL)
Value expressed in ng·h/mL; do not type the unit.

Requested field: AUC(0-t) at 24 h. Item: "CC(C)Oc1cc(-c2ccc(C[C@@H](C)NC[C@H](O)c3ccccc3)cc2)ccc1C(=O)O" 1640

---

Target: Beta-1 adrenergic receptor (Homo sapiens, UniProt P08588)
Assay: Agonist activity at human recombinant beta-1 adrenergic receptor expressed in CHO cells assessed as cAMP accumulation by enzyme immuno assay
Type: functional, cell-based
Experimental Endpoint: EC50 (nM)

Use the examples below as a reference point.
- Given Smiles: "C[C@H](Cc1ccc(-c2ccc(C(=O)O)cc2)cc1)NC[C@H](O)c1cccnc1"
  Experimental Endpoint: "EC50"
  Measurement Unit: "nM"
  Recorded Number: 75
- Given Smiles: "CC(C)Oc1cc(-c2ccc(CCNC[C@H](O)c3ccc(Cl)cc3)cc2)ccc1C(=O)O"
  Experimental Endpoint: "EC50"
  Measurement Unit: "nM"
  Recorded Number: 500
- Given Smiles: "CC(C)Oc1cc(-c2ccc(C[C@@H](C)NC[C@H](O)c3cccnc3)cc2)ccc1C(=O)O"
  Experimental Endpoint: "EC50"
  Measurement Unit: "nM"
  Recorded Number: 80

A = CC(C)Oc1cc(-c2ccc(CCN[C@@H](C)[C@H](O)c3ccc(O)cc3)cc2)ccc1C(=O)O
B = CC(C)Oc1cc(-c2ccc(CCNC[C@H](O)c3ccc(N)nc3)cc2)ccc1C(=O)O
Pick one: A or B . Which one has the lower reported EC50? // caller expects the label of the chosen entry B
(B: 130 nM, A: 500 nM)

---

Test: Total clearance in monkey at 0.27 mg/kg, iv by cassette assay
Format: ADME, organism-based, Macaca mulatta
Design: dose 0.27 mg/kg, route intravenous
Conditions: rhesus monkey, in vivo
Experimental Endpoint: clearance (L/h/kg)
Value expressed in L/h/kg; do not type the unit.

Requested field: clearance. Item: "CC(C)Oc1cc(-c2ccc(CCNC[C@H](O)c3cccnc3)cc2)ccc1C(=O)O" 1.37

---

Assay: Cmax in monkey at 0.32 mg/kg, po by cassette assay
Assay type: ADME, organism-based, Macaca mulatta
Set-up: dose 0.32 mg/kg, route oral
Details: rhesus monkey, in vivo
Experimental Endpoint: Cmax (ng/mL)
Value expressed in ng/mL; do not type the unit.

Requested field: Cmax. Item: "CC(C)Oc1cc(-c2ccc(CCN[C@@H](C)[C@H](O)c3ccccc3)cc2)ccc1C(=O)O" 178

---

Assay: Terminal half life in dog plasma at 0.32 mg/kg, iv
Assay type: ADME, organism-based, Canis lupus familiaris
Parameters: dose 0.32 mg/kg, route intravenous
Settings: read-out: beta t1/2 (converted)
Experimental Endpoint: half-life (h)

- Given Smiles: "CC(C)Oc1cc(-c2ccc(CCNC[C@H](O)c3cccnc3)cc2)ccc1C(=O)O"
  half-life, h: 9.9
- Given Smiles: "CC(C)Cc1cc(-c2ccc(CCNC[C@H](O)c3ccc(N)nc3)cc2)ccc1C(=O)O"
  half-life, h: 7.6

---

Experiment: Total clearance in rat at 0.26 mg/kg, iv by cassette assay
Type: ADME, organism-based
Set-up: dose 0.26 mg/kg, route intravenous
Details: in vivo
Experimental Endpoint: clearance (mL/min/kg)
Value expressed in mL/min/kg; do not type the unit.

Requested field: clearance. Item: "O=C(O)c1ccc(-c2ccc(CCNC[C@H](O)c3cccnc3)cc2)cc1OC1CCCCC1" 15.8

---

bioavailability values for the compounds below.
Assay: Bioavailability in dog at 0.1 mg/kg, po by cassette assay
Format: ADME, organism-based, Canis lupus familiaris
Conditions: in vivo
Value expressed in %; do not type the unit.

- Given Smiles: "CC(C)Cc1cc(-c2ccc(OCCNC[C@H](O)c3ccc(N)nc3)cc2)ccc1C(=O)O"
  bioavailability, %: 34.8

For the next question, use this compound.
Requested field: bioavailability. Item: "CCCOc1cc(-c2ccc(OCCNC[C@H](O)c3cccc(Cl)c3)cc2)ccc1C(=O)O" 69.7

---

Assay: Bioavailability in Beagle dog at 0.1 mg/kg, po by cassette assay
Type: ADME, organism-based, Canis lupus familiaris
Conditions: in vivo
Experimental Endpoint: bioavailability (%)
Value expressed in %; do not type the unit.

Use the examples below as a reference point.
- Given Smiles: "CC(C)COc1cc(-c2ccc(C[C@@H](C)NC[C@H](O)c3ccccc3)cc2)ccc1C(=O)O"
  Recorded Number: 0.4
- Given Smiles: "CCOc1cc(-c2ccc(C[C@@H](C)NC[C@H](O)c3ccccc3)cc2)ccc1C(=O)O"
  Recorded Number: 73
- Given Smiles: "CC(C)Oc1cc(-c2ccc(C[C@@H](C)NC[C@H](O)c3ccccc3)cc2)ccc1C(=O)O"
  Recorded Number: 41

For the next question, use this compound.
Requested field: bioavailability. Item: "C[C@H](Cc1ccc(-c2ccc(C(=O)O)c(OC3CCCCC3)c2)cc1)NC[C@H](O)c1ccccc1" 0

---

Assay: AUC (0 to 24 hrs) in dog at 0.1 mg/kg, po by cassette assay
Assay type: ADME, organism-based, Canis lupus familiaris
Design: time < 24 hr, dose 0.1 mg/kg, route oral
Conditions: plasma
AUC(0-t) at 24 h values for the compounds below.
Value expressed in ng·h/mL; do not type the unit.

- Given Smiles: "CC(C)Cc1cc(-c2ccc(OCCNC[C@H](O)c3ccc(N)nc3)cc2)ccc1C(=O)O"
  Measurement Unit: "ng·h/mL"
  Recorded Number: 38.2

For the next question, use this compound.
Requested field: AUC(0-t) at 24 h. Item: "CCCOc1cc(-c2ccc(OCCNC[C@H](O)c3cccc(Cl)c3)cc2)ccc1C(=O)O" 420

---

Molecular target: Beta-3 adrenergic receptor (Homo sapiens)
Sequence (P13945 whole entry): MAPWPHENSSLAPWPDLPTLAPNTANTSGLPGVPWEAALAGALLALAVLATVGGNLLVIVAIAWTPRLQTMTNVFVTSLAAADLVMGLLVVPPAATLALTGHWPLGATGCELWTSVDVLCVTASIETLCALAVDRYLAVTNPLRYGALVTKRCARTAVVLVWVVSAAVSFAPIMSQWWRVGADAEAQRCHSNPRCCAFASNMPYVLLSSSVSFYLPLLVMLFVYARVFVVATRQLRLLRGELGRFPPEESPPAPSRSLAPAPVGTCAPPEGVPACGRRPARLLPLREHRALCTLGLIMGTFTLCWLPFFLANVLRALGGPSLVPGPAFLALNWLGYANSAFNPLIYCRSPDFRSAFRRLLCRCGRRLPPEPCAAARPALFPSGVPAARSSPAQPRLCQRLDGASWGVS
Experiment: Agonist activity at human recombinant beta3 adrenergic receptor expressed in CHO cells assessed as cAMP accumulation by enzyme immuno assay
pEC50: −log10 of the molar value.
Experimental Endpoint: pEC50

Use the examples below as a reference point.
- Given Smiles: "CCCOc1cc(-c2ccc(NCCNC[C@H](O)c3cccc(Cl)c3)cc2)ccc1C(=O)O"
  pEC50: 9.68
- Given Smiles: "C[C@H](Cc1ccc(-c2ccc(C(=O)O)cc2)cc1)NC[C@H](O)c1ccccc1"
  pEC50: 9.52
- Given Smiles: "CCCOc1cc(-c2ccc(C[C@@H](C)NC[C@H](O)c3cccnc3)cc2)ccc1C(=O)O"
  pEC50: 10.19
- Given Smiles: "C[C@@H](Cc1ccc(-c2ccc(C(=O)O)cc2)cc1)NC[C@H](O)c1cccc(Cl)c1"
  pEC50: 8.22
- Given Smiles: "CC(C)Cc1cc(-c2ccc(OCCNC[C@H](O)c3ccc(N)nc3)cc2)ccc1C(=O)O"
  pEC50: 10.23

a = CC(C)Oc1cc(-c2ccc(OCCNC[C@H](O)c3cccc(Cl)c3)cc2)ccc1C(=O)O
b = CC(C)Oc1cc(-c2ccc(CCN[C@@H](C)[C@H](O)c3ccc(O)cc3)cc2)ccc1C(=O)O
Pick one: a or b . Which one has the lower reported pEC50? // caller expects the label of the chosen entry a
